# Kd listing for each entry below
- Measurement target: T1, mouse serum albumin (mouse, UniProt P07724 25-608)
- T1 construct: bought protein, amine-coupled to a CM5 chip; also called Mouse SA
- Experimental protocol: SPR (Biacore 8K), albumin immobilised, 25 C, 1:1 kinetics
Number only, in nM; omit the unit.

>  <Binder>
INS Analog 30 (other, single-chain insulin B-L2-A-L1-VHH fusion; also called Ex. 30) FVSQHLCGSHLVEALRLVCGERGFHYTPKTGGGGGGGIVEQCCHSICSLYQLENYCGPGPQPGPQPGPQPGPQPGPQPGPQPGPQPGPQEVQLLESGGGLVQPGGSLRLSCAASGRYIDETAVAWFRQAPGKEREFVAGIGGGVDITYYADSVKGRFTISRDNSKNTLYLQMNSLRPEDTAVYYCAARPGRPLITSKVADLYPYWGQGTLVTVSSPP

>  <Kd, nM>
39

$$$$
>  <Binder>
INS Analog 28 (other, single-chain insulin B-L2-A-L1-VHH fusion; also called Ex. 28) FVSQHLCGSHLVEALRLVCGERGFFYTPKTGGGGGGGIVEQCCHSICSLYQLENYCGPGPQPGPQPGPQPGPQPGPQPGPQPGPQPGPQEVQLLESGGGLVQPGGSLRLSCAASGRYIDETAVAWFRQAPGKEREFVAGIGGGVDITYYADSVKGRFTISRDNSKNTLYLQMNSLRPEDTAVYYCAARPGRPLITSKVADLYPYWGQGTLVTVSSPP

>  <Kd, nM>
37

$$$$
>  <Binder>
INS Analog 24 (other, single-chain insulin B-L2-A-L1-VHH fusion; also called Ex. 24) FVSQHLCGSHLVEALHLVCGERGFHYTPKTGGGGGGGIVEQCCHSICSLEQLENYCGPGPQPGPQPGPQPGPQPGPQPGPQPGPQPGPQEVQLLESGGGLVQPGGSLRLSCAASGRYIDETAVAWFRQAPGKEREFVAGIGGGVDITYYADSVKGRFTISRDNSKNTLYLQMNSLRPEDTAVYYCAARPGRPLITSKVADLYPYWGQGTLVTVSSPP

>  <Kd, nM>
49

$$$$

Shift focus to the following entry.
GET /value?item= INS Analog 23 (other, single-chain insulin B-L2-A-L1-VHH fusion; also called Ex. 23) FVSQHLCGSHLVEALHLVCGERGFHYTPKTGGGGGGGIVEQCCHSICSLEQLENYCGGGGGQGGGGQGGGGQGGGGQGGGGQEVQLLESGGGLVQPGGSLRLSCAASGRYIDETAVAWFRQAPGKEREFVAGIGGGVDITYYADSVKGRFTISRDNSKNTLYLQMNSLRPEDTAVYYCAARPGRPLITSKVADLYPYWGQGTLVTVSSPP &field=Kd returns 76
